tested on: isolated hamster ureter; experiment: Inhibition of phenylephrine-induced contraction of isolated hamster ureter (organ bath); conditions: against phenylephrine concentration-response curve
Where a name gives a salt, the structure may show the parent alone.

compound	pA2
COc1ccccc1N1CCN(CC(O)COc2cccc3ccccc23)CC1 (stereo not shown)	6.54
COc1ccccc1N1CCN(CCN2C(=O)CC3(CCCC3)CC2=O)CC1	5.75
CCOc1ccccc1OCCN[C@H](C)Cc1ccc(OC)c(S(N)(=O)=O)c1 [tamsulosin hydrochloride]	9.85
C[C@H](Cc1cc2c(c(C(N)=O)c1)N(CCCO)CC2)NCCOc1ccccc1OCC(F)(F)F	9.44
